target: Protein kinase C theta type (Homo sapiens) (UniProt Q04759); settings: at 0.1 µM;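 further: reported figure is the mean percent inhibition of PKC-theta, from the GSK PKIS screen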
Sequence (Q04759 whole entry, looked up): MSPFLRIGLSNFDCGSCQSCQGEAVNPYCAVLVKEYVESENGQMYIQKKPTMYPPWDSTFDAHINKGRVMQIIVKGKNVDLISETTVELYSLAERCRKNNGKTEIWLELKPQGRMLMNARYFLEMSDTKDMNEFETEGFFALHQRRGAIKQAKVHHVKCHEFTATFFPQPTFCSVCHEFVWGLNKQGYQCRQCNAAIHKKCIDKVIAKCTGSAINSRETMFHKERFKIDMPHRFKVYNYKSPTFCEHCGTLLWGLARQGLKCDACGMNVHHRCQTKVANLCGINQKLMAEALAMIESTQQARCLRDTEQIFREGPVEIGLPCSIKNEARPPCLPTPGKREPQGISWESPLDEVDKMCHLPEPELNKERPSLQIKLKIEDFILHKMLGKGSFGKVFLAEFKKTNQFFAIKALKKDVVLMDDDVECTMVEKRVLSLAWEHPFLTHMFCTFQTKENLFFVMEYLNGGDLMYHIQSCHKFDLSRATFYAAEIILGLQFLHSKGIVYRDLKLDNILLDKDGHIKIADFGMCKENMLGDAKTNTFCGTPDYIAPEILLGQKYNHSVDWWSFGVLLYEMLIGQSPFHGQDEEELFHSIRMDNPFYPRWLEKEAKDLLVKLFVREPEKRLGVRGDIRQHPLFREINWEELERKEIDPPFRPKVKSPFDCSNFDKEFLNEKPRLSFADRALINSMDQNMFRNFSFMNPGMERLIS

STRUCTURE_STRING | VALUE_UNITS | inhibition
Cc1ccc(-c2cc3c(NC(=O)C4CC4)ncnc3o2)cc1 | % | 2.02
COc1ccc2ncn(-c3cc(O[C@H](C)c4ccccc4C(F)(F)F)c(C(N)=O)s3)c2c1 | % | -0.16
COc1cccc(-n2ncc3c(N/N=C/c4ccc(C(=O)NCCN(C)C)cc4)ncnc32)c1 | % | 1.61
Cc1cc(O)cc(C)c1/C=C/c1cncc(C(=O)OC(C)(C)C)c1 | % | 1.48
COc1c(C(N)=O)cc(-c2ccc(Cl)cc2)cc1-c1ccc(S(N)(=O)=O)cc1 | % | 2.35
CC(C)c1ccc(-c2cc(-c3c[nH]nc3-c3ccccn3)ccn2)cc1 | % | 0.13

* * *

Listing: inhibition of selected compounds
molecular target: Insulin receptor (Homo sapiens); details: at 0.1 µM;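 further: reported values are averages of replicate inhibition measurements against the insulin receptor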
OBSERVED_PROPERTY: inhibition (%)

COMPOUND | TESTED_SYSTEM | OBSERVED_PROPERTY | OBSERVED
N#Cc1ccc2c(-c3ccnc(NC4CC4)n3)c(-c3ccc(F)cc3)nn2c1 | Insulin receptor (Homo sapiens) | inhibition | 0.02
COc1cccc(Nc2nccc(-c3cnn4ncccc34)n2)c1 | Insulin receptor (Homo sapiens) | inhibition | 10.9
Fc1ccc(Nc2nccc(-c3c(-c4ccc(C(F)(F)F)cc4)nn4ncccc34)n2)cc1F | Insulin receptor (Homo sapiens) | inhibition | 4.61
CCS(=O)(=O)c1ccc(OC)c(Nc2ncc(-c3cccc(F)c3)o2)c1 | Insulin receptor (Homo sapiens) | inhibition | 7.03
COc1cccc(-n2ncc3c(N/N=C/c4ccc(C(=O)NCCN(C)C)cc4)ncnc32)c1 | Insulin receptor (Homo sapiens) | inhibition | 0.94
N#Cc1cccc(Nc2ncc(-c3ccccc3)o2)c1 | Insulin receptor (Homo sapiens) | inhibition | 1.81
CS(=O)(=O)CCNCc1ccc(-c2ccc3ncnc(Nc4ccc(OCc5cccc(C(F)(F)F)c5)cc4)c3c2)o1 | Insulin receptor (Homo sapiens) | inhibition | 11.2
CC1=C(C(=O)Nc2ccc3[nH]ncc3c2)C(c2ccc(F)cc2)N=C(c2ccc(C(F)(F)F)nc2)N1 (configuration not stated) | Insulin receptor (Homo sapiens) | inhibition | 3.82
CNC(=O)c1cncc(/C=C/c2ccccc2C)c1 | Insulin receptor (Homo sapiens) | inhibition | 2.85
CS(=O)(=O)Nc1ccc(-c2ccc3c(NC(=O)C4CC4)n[nH]c3c2)cc1 | Insulin receptor (Homo sapiens) | inhibition | 4.13
Cc1cc(O)cc(C)c1/C=C/c1cncc(C(N)=O)c1 | Insulin receptor (Homo sapiens) | inhibition | 3.56
Cc1nnc(-c2cccc(-c3ccc(C(=O)NCC4CC4)cc3)c2)o1 | Insulin receptor (Homo sapiens) | inhibition | 9.39
COc1ccc(Nc2ncc(-c3ccccc3)o2)cc1OC | Insulin receptor (Homo sapiens) | inhibition | 1.73
NS(=O)(=O)c1cccc(N/C=C2\C(=O)Nc3ccccc32)c1 | Insulin receptor (Homo sapiens) | inhibition | 5.3
COc1cc(N2CCN(C(C)C)CC2)ccc1Nc1nc(Nc2cccc(F)c2C(=O)O)c2cc[nH]c2n1 | Insulin receptor (Homo sapiens) | inhibition | 82.6
O=C(O[C@H]1CN[C@H](C#Cc2cc3ncnc(Nc4ccc(OCc5cccc(F)c5)c(Cl)c4)c3s2)C1)N1CCOCC1 | Insulin receptor (Homo sapiens) | inhibition | 7.72
COc1cc2c(cc1Nc1nc(Nc3cccc(F)c3C(N)=O)c3cc[nH]c3n1)N(C(=O)CN1CCN(C(C)C)CC1)CC2 | Insulin receptor (Homo sapiens) | inhibition | 69.1
CNC(=O)c1sc(-n2cnc3cc(OC)c(OC)cc32)cc1OCc1ccccc1C(F)(F)F | Insulin receptor (Homo sapiens) | inhibition | -4.16
COC(=O)Nc1nc2cc(Oc3ccc(NC(=O)Nc4ccccc4)cc3)ccc2[nH]1 | Insulin receptor (Homo sapiens) | inhibition | 3.75
CCn1c(-c2nonc2N)nc2cncc(C(=O)NCCNC)c21 | Insulin receptor (Homo sapiens) | inhibition | 5.87
CC1=C(C(=O)Nc2ccc3[nH]nc(C)c3c2)C(c2ccc(C(F)(F)F)cc2)CC(=O)N1 (configuration not stated) | Insulin receptor (Homo sapiens) | inhibition | 0.03
NS(=O)(=O)c1ccc(N/N=C2\C(=O)Nc3ccc(C(=O)NCc4ccncc4)cc32)cc1 | Insulin receptor (Homo sapiens) | inhibition | 1.24
NS(=O)(=O)c1ccc(N/N=C2\C(=O)Nc3cccc(CCc4ccncc4)c32)cc1 | Insulin receptor (Homo sapiens) | inhibition | 4.32
CN1CCC(n2cnc(-c3ccc(F)cc3)c2-c2ccnc(NCCO)n2)CC1 | Insulin receptor (Homo sapiens) | inhibition | 2.63
COc1cc(Nc2ncc(-c3ccccc3)o2)cc(OC)c1 | Insulin receptor (Homo sapiens) | inhibition | 1.03
COc1c(C(N)=O)cc(-c2ccc(Cl)cc2)cc1-c1ccc(S(N)(=O)=O)cc1 | Insulin receptor (Homo sapiens) | inhibition | 9.51
COc1cc(N2CCN(C(C)C)CC2)ccc1Nc1nc(Nc2cccc3ncccc23)c2cc[nH]c2n1 | Insulin receptor (Homo sapiens) | inhibition | 22.6

Origin of values: ChEMBL document CHEMBL1961873
